What TGI was measured for each of the following?
Test system: SF-295 CNS
test method notes: NCI tumour cell line growth inhibition, 48 h

**Query** Entry "c1ccc(CNCCN(CCNCc2ccccn2)Cc2ccc3ccccc3c2)nc1" , system SF-295 CNS: what TGI was measured?
**Result** 3.55 µM

**Query** Entry O=C(CCN1CCCCC1)N1CCc2c([nH]c3ccccc23)C1c1cccnc1 (configuration not stated) , system SF-295 CNS: what TGI was measured?
**Result** > 100 µM

**Query** Entry "Clc1ccccc1-c1nnc2c(Cc3ccccc3)nc3ccccc3n12" , system SF-295 CNS: what TGI was measured?
**Result** > 100 µM

**Query** Entry "Cc1c(CCCl)c(N=P(c2ccccc2)(c2ccccc2)c2ccccc2)n2c(nc3ccccc32)c1C#N" , system SF-295 CNS: what TGI was measured?
**Result** > 10 µM

**Query** Entry COC(=O)C1C(=O)O[C@@H](c2cc(OC)c(OC)cc2OC)C1C(=O)OC (mixture of isomers) , system SF-295 CNS: what TGI was measured?
**Result** > 100 µM

**Query** Entry C=CC1CN(C(=O)OCC)N(C(=O)OCC)C1CCc1ccccc1 (configuration not stated) , system SF-295 CNS: what TGI was measured?
**Result** > 100 µM

**Query** Entry "CCOC(=O)c1c(NC(=S)Nc2ccc(Cl)cc2)sc2c1CCN(C)C2" , system SF-295 CNS: what TGI was measured?
**Result** > 100 µM

**Query** Entry "CCCCCC/C=C\CCCCCCCCCC1=C(CN2CCN(C)CC2)C(=O)C=C(OC)C1=O" , system SF-295 CNS: what TGI was measured?
**Result** 25.3 µM

**Query** Entry "Cc1nc2c(o1)C(=Nc1ccccc1)c1nc(C)oc1C2=Nc1ccccc1" , system SF-295 CNS: what TGI was measured?
**Result** 46.7 µM

**Query** Entry CC(C)C1NC(=O)CC(c2ccccc2)N(N=O)C1c1ccccc1 (configuration not stated) , system SF-295 CNS: what TGI was measured?
**Result** > 100 µM

**Query** Entry O=C1CCc2ccc(O)c(c2)Oc2ccc(cc2)C(Sc2ccccc2)CCO1 (configuration not stated) , system SF-295 CNS: what TGI was measured?
**Result** 38.2 µM

**Query** Entry "CN(/N=C\c1ccnc2ccccc12)c1ccc([N+](=O)[O-])cc1" , system SF-295 CNS: what TGI was measured?
**Result** > 100 µM

**Query** Entry "N[C@@H]1CCN(c2c(F)cc3c(=O)c(C(=O)O)cn4c3c2Oc2cc3c(ccc5ccccc53)cc2-4)C1" , system SF-295 CNS: what TGI was measured?
**Result** > 100 µM

**Query** Entry "N/N=C(/Cc1nc2ccc(C(=O)c3ccccc3)cc2[nH]c1=O)C(=O)Nc1ccc([N+](=O)[O-])cc1[N+](=O)[O-]" , system SF-295 CNS: what TGI was measured?
**Result** > 100 µM

**Query** Entry CC(=O)[C@H]1CCC2[C@@H]3CC=C4C[C@@H]([O-])CC[C@]4(C)C3CC[C@@]21C.CC(=O)[C@H]1CCC2[C@@H]3CC=C4C[C@@H]([O-])CC[C@]4(C)C3CC[C@@]21C.CC(=O)[CH-]C(=O)c1ccccc1.CC(=O)[CH-]C(=O)c1ccccc1.Cl.[Ti+4] (some centres not stated) , system SF-295 CNS: what TGI was measured?
**Result** 46.4 µM

**Query** Entry "COc1nc(N)c(NC(C)=O)c(=O)n1C" , system SF-295 CNS: what TGI was measured?
**Result** > 100 µM

**Query** Entry O=C(Nc1ccc(Cl)c(Cl)c1)C(=O)C(C(=O)c1ccccc1-c1ccccc1)C1OC(=O)c2ccccc21 (configuration not stated) , system SF-295 CNS: what TGI was measured?
**Result** 73.6 µM

**Query** Entry "O=C1NN(Cc2ccccc2)C(=O)N2CCC[C@@H]12" , system SF-295 CNS: what TGI was measured?
**Result** > 100 µM

**Query** Entry O=C1CC(CC(=O)c2ccc(Br)cc2)C(=O)/C1=C(/O)c1ccc(Br)cc1 (configuration not stated) , system SF-295 CNS: what TGI was measured?
**Result** > 100 µM

**Query** Entry O=C(Nc1ccc(Cl)cc1Cl)OC(Cn1cncn1)c1ccc(Cl)cc1Cl (configuration not stated) , system SF-295 CNS: what TGI was measured?
**Result** 31.4 µM

**Query** Entry "O=C(/C=C/c1cccc([N+](=O)[O-])c1)c1ccc([N+](=O)[O-])cc1" , system SF-295 CNS: what TGI was measured?
**Result** > 100 µM

**Query** Entry "COC(C)(C)/C=C/c1[nH]c2ccccc2c1CC(=O)NCCc1cn(C(c2ccccc2)(c2ccccc2)c2ccccc2)cn1" , system SF-295 CNS: what TGI was measured?
**Result** > 31.3 µM
